Measured values drawn from patent US20250215104A1 for this set.

target.under.test: T1, cynomolgus soluble urokinase plasminogen activator receptor (suPAR) (cynomolgus, UniProt Q9GK78 23-303, limits assumed)
T1 construct: Target antigen of the scFv off-rate screen; also called cynomolgus suPAR; cynomolgus uPAR
assay.overview: BLI (Octet) off-rate screen of scFv clones
assay.readout: koff (s⁻¹)
Express it in s⁻¹; write the number only.

The binder identified as suPAR_DB06_E11 (scFv, V domains shown) VH: QVQLVQSGAEVKKPGASVKVSCKASGYTFTGYYMHWVRQAPGQGLEWMGWIDHENGNTIYAQKFQGRVTMTRDTSTSTVYMELSSLRSEDTAVYYCARGYDVDWFVYWGQGTLVTVSS VL: DIQMTQSPSSLSASVGDRVTITCSASSSVSYMYWYQQKPGKAPKLLIYRTSNLASGVPSRFSGSGSGTDFTLTISSLQPEDFATYYCQQYHSYPPTFGGGTKVEIK registered its koff at 0.000723

Query suPAR_DB06_E08 (scFv, V domains shown) VH: QVQLVQSGAEVKKPGASVKVSCKASGYGFTDYYMHWVRQAPGQGLEWMGWIDHSGGNTIYAQKFQGRVTMTRDTSTSTVYMELSSLRSEDTAVYYCARGYDVDWFVYWGQGTLVTVSS VL: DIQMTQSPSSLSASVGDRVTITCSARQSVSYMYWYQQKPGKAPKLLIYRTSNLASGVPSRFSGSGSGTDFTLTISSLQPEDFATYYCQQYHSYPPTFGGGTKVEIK yields koff of 2.02e-05

Quick note, koff for suPAR_DB06_G04 (scFv, V domains shown) VH: QVQLVQSGAEVKKPGASVKVSCKASGYTFTGYYMHWVRQAPGQGLEWMGWINPEGGSTNYEQKFQGRVTMTRDTSTSTVYMELSSLRSEDTAVYYCARGYDVDWFVYWGQGTLVTVSS VL: DIQMTQSPSSLSASVGDRVTITCSARYSVSYMYWYQQKPGKAPKLLIYRTSNLASGVPSRFSGSGSGTDFTLTISSLQPEDFATYYCQQYHSYPPTFGGGTKVEIK landed at 0.000223
